# Target or test system: T1, Bbc1, P47068
# T1 sequence (P47068 1-78, looked up): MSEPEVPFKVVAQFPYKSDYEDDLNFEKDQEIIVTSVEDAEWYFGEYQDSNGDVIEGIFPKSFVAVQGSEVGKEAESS
# Test method notes: SPOT array
# Measurement conditions: median of control spots 796
Recorded metric: SPOT intensity

| Binder | SPOT intensity |
| --- | --- |
| MARRRLPDRPPNGIG | 69 |
| NMLKKKPLKKPLKRF | 160 |

[P] GDHPKGPPPPPPPPD
[Q] GKFIPSRPAPKPPSS
[R] HHKRRPTTIDVPGLT
Rank the 3 binders: largest SPOT intensity first, smallest last. // respond by listing labels in the order requested Q, R, P
(Q: 138, R: 2, P: 0)
